Data origin: a melting point compilation (Tetko et al.; mined from patent text by program, amines drawn as free bases though some values may be those of a salt)

Item-by-item account of melting point

>  <compound>
COc1ccc(-c2ncn(CCC(C)(C)NCC(O)c3ccc(O)c(CO)c3)n2)cc1 (stereo not given)

>  <melting point>
142 to 145 °C

$$$$
>  <compound>
COc1cc(C(=O)c2ccccn2)cc([N+](=O)[O-])c1OC

>  <melting point>
113 °C

$$$$
>  <compound>
COc1cc(C)cc(OC)c1C1=NC(NC(=O)C(N)Cc2ccccc2)C(=O)N(C)c2ccccc21 (stereo not given)

>  <melting point>
165 °C

$$$$
>  <compound>
Cn1ncnc1COc1nn2c(-c3ccccc3)nnc2cc1C1CCCCC1

>  <melting point>
192 °C

$$$$
>  <compound>
C[C@H](O)CCC[C@H](O)CCCCCc1cccc(O)c1C(=O)O

>  <melting point>
83 to 84 °C

$$$$
>  <compound>
Cc1ccc(C)c2cc3ccccc3cc12

>  <melting point>
70 to 72 °C

$$$$
>  <compound>
CCCCCN1C(=O)C2(COc3cc4nc(C)sc4cc32)c2ccccc21 (stereo not given)

>  <melting point>
105 to 107 °C

$$$$
>  <compound>
COc1ccc(-n2nc(C(=O)NC(C)(C)C)c3c2C2CCC3C2)cc1 (stereo not given)

>  <melting point>
145 to 147 °C

$$$$
>  <compound>
COCCN(C)c1nnc(-c2ccc(-c3ccccc3)nc2)n1-c1ccccc1C#N

>  <melting point>
148 to 149 °C

$$$$
>  <compound>
CCCCOc1ccc2cc(Br)ccc2c1

>  <melting point>
48 to 50 °C

$$$$

----------
reported-property: melting point

>  <molecule>
COc1ccc(C2=NOC(CN=C=S)C2)cc1 (configuration not stated)

>  <measured-result>
92 to 94 °C

$$$$
>  <molecule>
CN(C)Cc1ccc(NC(=O)C2=Cc3cc(-c4ccccc4)ccc3CC2)cc1

>  <measured-result>
182 to 184 °C

$$$$
>  <molecule>
COC(=O)c1c(Cl)cc(Cl)cc1NC(=O)CSc1ccccc1C

>  <measured-result>
93 to 94 °C

$$$$
>  <molecule>
CCCC(Oc1ccc2c(-c3ccc(Cl)cc3)noc2c1)C(=O)OCC (configuration not stated)

>  <measured-result>
88 °C

$$$$
>  <molecule>
CCCCc1nc2cc(CO)ccc2n1Cc1ccc(-c2ccccc2C(=O)O)cc1

>  <measured-result>
130 to 143 °C

$$$$
>  <molecule>
COC(=O)NCOC(=O)N=CNc1c(Cc2cccnc2)c[nH]c1C(=O)OC

>  <measured-result>
160 to 162 °C

$$$$
>  <molecule>
CC(=O)Nc1nc2c(s1)C(=O)C(Br)CC2 (configuration not stated)

>  <measured-result>
180 to 182 °C

$$$$
>  <molecule>
Cc1nnc(-c2ccc(F)cc2F)n2nc(OCc3ncnn3C)c(-c3ccsc3)c12

>  <measured-result>
144 to 146 °C

$$$$
>  <molecule>
O=C(O)c1ccccc1C(=O)c1ccc(O)cc1

>  <measured-result>
124 to 128 °C

$$$$
>  <molecule>
Cc1cccc(CNC(=O)c2ccc3n2Cc2ccccc2N(C(=O)c2ccc(-c4ccccc4C)c(C)c2)C3)c1

>  <measured-result>
130 to 132 °C

$$$$
>  <molecule>
CC1=C(C(=O)Nc2cccc(C#N)c2)SCCO1

>  <measured-result>
119 to 121 °C

$$$$
>  <molecule>
CSC(c1ccc(Cl)cc1)C(C(=O)C(C)(C)C)n1cncn1 (configuration not stated)

>  <measured-result>
145 °C

$$$$
>  <molecule>
COc1cc(NC(C)=O)c(Cl)cc1C(=O)NC1CC2CCCCN2C1 (configuration not stated)

>  <measured-result>
151 to 153 °C

$$$$
>  <molecule>
O=C1CCC(N2C(=O)c3cccc(Nc4ccc5c(c4)OCO5)c3C2=O)C(=O)N1 (configuration not stated)

>  <measured-result>
> 260 °C

$$$$
>  <molecule>
COC(=O)CCC(=O)c1ccc(SC(=O)N(C)C)cc1

>  <measured-result>
98 to 100 °C

$$$$
>  <molecule>
CCOP(=O)(C[C@H]1CCN[C@@H](C(N)=O)C1)OCC (relative stereo)

>  <measured-result>
155 to 158 °C

$$$$
>  <molecule>
Nc1ccc2nccnc2c1Br

>  <measured-result>
155 to 156 °C

$$$$
>  <molecule>
CCCCc1ccc(NS(=O)(=O)c2ccc(N3CCNC3=O)cc2)cc1

>  <measured-result>
203 to 205 °C

$$$$
>  <molecule>
CN(Cc1ccc(NC(=O)C2=Cc3cc(-c4ccc5c(c4)CCCO5)ccc3S(=O)(=O)CC2)cc1)C1CCOCC1

>  <measured-result>
245 to 249 °C

$$$$
>  <molecule>
CC(=O)Oc1ccc(-c2cnc(N(S(C)(=O)=O)S(C)(=O)=O)c(Cc3ccccc3)n2)cc1

>  <measured-result>
166 to 167 °C

$$$$
>  <molecule>
C=CCNC(=S)C(CN1CCOCC1)c1ccccn1 (configuration not stated)

>  <measured-result>
84 to 86 °C

$$$$
>  <molecule>
CCOC(=O)c1ccc(N)c(I)c1

>  <measured-result>
71 to 74 °C

$$$$
>  <molecule>
O=C(Cn1nc(-c2ccccc2O)nc1-c1ccccc1O)NCCOCCO

>  <measured-result>
173 to 174 °C

$$$$
>  <molecule>
CCOC(=O)C(=CNn1cnnc1)C(=O)c1cc(F)c(F)cc1F

>  <measured-result>
239 to 240 °C

$$$$
>  <molecule>
CCOC(=O)C1=C(C)NC(C)=C(C(=O)OCCN2CCN(C(c3ccc(C)cc3)c3ccc(C)cc3)CC2)C1c1cccc(Cl)c1 (configuration not stated)

>  <measured-result>
79 to 81 °C

$$$$
>  <molecule>
Cn1cc(C2=C(c3cn(C)c4cc(O)ccc34)C(=O)NC2=O)c2ccccc21

>  <measured-result>
279 to 282 °C

$$$$
>  <molecule>
CCOC(=O)COc1cc2c(c(Cl)c1Cl)C(=O)C(c1ccccc1)C2 (configuration not stated)

>  <measured-result>
114 to 115 °C

$$$$
